- Study conditions: in methanol, 313.15 K
Measure: solubility (mole fraction)
# print the numeric value only

Q: Give recorded solubility (mole fraction). `COc1cc(N)nc(OC)n1`
Result: 0.0482

----------
- Study conditions: in ethanol, 298.15 K
Measure: solubility (mole fraction)

Q: Give recorded solubility (mole fraction). `COc1cc(N)nc(OC)n1`
Result: 0.0205

----------
- Study conditions: in water, 303.15 K
Measure: solubility (mole fraction)

Q: Give recorded solubility (mole fraction). `COc1cc(N)nc(OC)n1`
Result: 0.000534

----------
- Study conditions: in ethanol, 318.15 K
Measure: solubility (mole fraction)
# print the numeric value only

Q: Give recorded solubility (mole fraction). `COc1cc(N)nc(OC)n1`
Result: 0.0463

----------
- Study conditions: in methanol, 323.15 K
Measure: solubility (mole fraction)
# print the numeric value only

Q: Give recorded solubility (mole fraction). `COc1cc(N)nc(OC)n1`
Result: 0.0643

----------
- Study conditions: in isopropanol, 313.15 K
Measure: solubility (mole fraction)
# print the numeric value only

Q: Give recorded solubility (mole fraction). `COc1cc(N)nc(OC)n1`
Result: 0.0297

----------
- Study conditions: in DMF, 308.15 K
Measure: solubility (mole fraction)

Q: Give recorded solubility (mole fraction). `COc1cc(N)nc(OC)n1`
Result: 0.201

----------
- Study conditions: in DMF, 313.15 K
Measure: solubility (mole fraction)

Q: Give recorded solubility (mole fraction). `COc1cc(N)nc(OC)n1`
Result: 0.254

----------
- Study conditions: in methanol, 293.15 K
Measure: solubility (mole fraction)
# print the numeric value only

Q: Give recorded solubility (mole fraction). `COc1cc(N)nc(OC)n1`
Result: 0.0254

----------
- Study conditions: in DMF, 293.15 K
Measure: solubility (mole fraction)
# print the numeric value only

Q: Give recorded solubility (mole fraction). `COc1cc(N)nc(OC)n1`
Result: 0.0949

----------
- Study conditions: in water, 308.15 K
Measure: solubility (mole fraction)
# print the numeric value only

Q: Give recorded solubility (mole fraction). `COc1cc(N)nc(OC)n1`
Result: 0.000614

----------
- Study conditions: in ethanol, 323.15 K
Measure: solubility (mole fraction)
# print the numeric value only

Q: Give recorded solubility (mole fraction). `COc1cc(N)nc(OC)n1`
Result: 0.0561

----------
- Study conditions: in isopropanol, 283.15 K
Measure: solubility (mole fraction)
# print the numeric value only

Q: Give recorded solubility (mole fraction). `COc1cc(N)nc(OC)n1`
Result: 0.00553

----------
- Study conditions: in ethanol, 293.15 K
Measure: solubility (mole fraction)
# print the numeric value only

Q: Give recorded solubility (mole fraction). `COc1cc(N)nc(OC)n1`
Result: 0.0164

----------
- Study conditions: in isopropanol, 303.15 K
Measure: solubility (mole fraction)
# print the numeric value only

Q: Give recorded solubility (mole fraction). `COc1cc(N)nc(OC)n1`
Result: 0.0175

----------
- Study conditions: in isopropanol, 318.15 K
Measure: solubility (mole fraction)
# print the numeric value only

Q: Give recorded solubility (mole fraction). `COc1cc(N)nc(OC)n1`
Result: 0.038

----------
- Study conditions: in ethanol, 303.15 K
Measure: solubility (mole fraction)
# print the numeric value only

Q: Give recorded solubility (mole fraction). `COc1cc(N)nc(OC)n1`
Result: 0.0253

----------
- Study conditions: in water, 288.15 K
Measure: solubility (mole fraction)
# print the numeric value only

Q: Give recorded solubility (mole fraction). `COc1cc(N)nc(OC)n1`
Result: 0.000347

----------
- Study conditions: in water, 318.15 K
Measure: solubility (mole fraction)
# print the numeric value only

Q: Give recorded solubility (mole fraction). `COc1cc(N)nc(OC)n1`
Result: 0.000788

----------
- Study conditions: in DMF, 298.15 K
Measure: solubility (mole fraction)
# print the numeric value only

Q: Give recorded solubility (mole fraction). `COc1cc(N)nc(OC)n1`
Result: 0.123

----------
- Study conditions: in water, 283.15 K
Measure: solubility (mole fraction)

Q: Give recorded solubility (mole fraction). `COc1cc(N)nc(OC)n1`
Result: 0.000298

----------
- Study conditions: in DMF, 283.15 K
Measure: solubility (mole fraction)
# print the numeric value only

Q: Give recorded solubility (mole fraction). `COc1cc(N)nc(OC)n1`
Result: 0.055

Where these numbers come from: BigSolDB 2.1
